test: yeast display, Sf9 membrane polyspecificity reagent, FACS + sequencing; frameworks hold sequencing errors
quantity_name: polyreactivity (PSR sort gate)

As a guide, the following entries are already answered.
INSERT INTO assay_data (seq, obs_value) VALUES
  ('QVQLVESGGGLVQAGGSLRLSCAASGIIFYRYAMVWYRQAPGKERELVAAITWSGVSTSYADSVKGRFTISRDNAMNTVYLQMTSLKPEDTAVYYCNKDQGTLYGDMDSWGQGTQVTVSS', 'low polyreactivity'),
  ('QVQLVESGGGLVQAGGSLRLSCAASGRTFWYYTMGWYRQAPGKERELVAAISGSGGRTYYADSVKGRFTISRDNAKNTVYLQMNSLKPEDTAVYYCAARRAYFVAYIYDRDYWGQGTQVTVSS', 'high polyreactivity'),
  ('QVQLQESGGGQVQAGGSLRWSCAASGYISTHYFMGWYRQAPGKDREFVAGISNGSITNYADSVKGRFTISRDNARNTVYLQMNSLKPEDTAVYYVAAYQWTYVRFGYWGQGTQVTVSG', 'high polyreactivity'),
  ('QVQLVESGGGLVQAGGSLRLSCAASGRIFGTYGMGWYRQAPGKERELVAAINWRGGSTYYADSVKGRFTISRDNAKNTVYLQMNSLKPEDTAVYYCNARLYRNRLGYWGQGTQVTVSS', 'high polyreactivity');

Okay, next one:
Request: Find the recorded polyreactivity (PSR sort gate) belonging to QVQLVESGGGLVQAGGSLRLRSAASGSIYNQNAMGWYRQAHGNRELVAAITNGVSTDYADSVKGRFTISRDNAKNTVYLKLNSLKPEDTAVYYCNAGNYQYPSFEYDYWGLGTQVTVSS and report it.
Result: low polyreactivity

Origin of values: the nanobody polyreactivity screen of Harvey et al. (2022)
